Provenance of the data: patent US8409550B2

# IC50 annotations
System: transglutaminase (TGase I)
assay-notes: Transglutaminase (Tgase) ELISA assay in cultured keratinocytes with retinol and boosters
Type: cell-based, human
test-conditions: Tgase inhibition, compound tested individually in the presence of 10^-7 M retinol; read-out: IC50
Provide only the numeric value, understood in µM.

Here is how some molecules turned out for IC50.
molecule | unit-text | IC50
CCCCCCCC/C=C/CCCCCCCC(=O)O | µM | 65
CCCCCCCC/C=C\CCCCCCCC1=NCCN1CCO [Oleyl Hydroxyethylimidazoline] | µM | 30.2
C/C=C\C(=O)C1C(C)=CCCC1(C)C (stereo not drawn) | µM | 335

Given item CC1(C)[C@@H](O)CC[C@]2(C)[C@H]3C(=O)C=C4[C@@H]5C[C@@](C)(C(=O)O)CC[C@]5(C)CC[C@@]4(C)[C@]3(C)CC[C@@H]12 , the value recorded as its IC50 is 8.64

Given item Oc1ccc2ccccc2n1 [Hydroxyquinoline (Carbostyril), 2-Hydroxyquinoline(Carbostyril)] , the value recorded as its IC50 is 364

Given item O=C(O)CCCCCCCCCCCCCCC(=O)O , the value recorded as its IC50 is 130

Given item CCCCCCCCCCCC1=NCCN1CCO [Lauryl Hydroxyethylimidazoline] , the value recorded as its IC50 is 0.467

Given item CCCCC/C=C\C/C=C\CCCCCCCC(=O)NCCO [Linoleoyl Monoethanolamide] , the value recorded as its IC50 is 16.1

Given item CCCCCCCCCCC(O)C(=O)NCCO (stereo not drawn) [Hydroxyethyl-2-Hydroxy-C12 Amide, N-Hydroxyethyl-2-hydroxydodecyl amide] , the value recorded as its IC50 is 32.9

###

Test system: cytochrome P450 dependent retinoic acid oxidation
assay-notes: Assay for NADPH dependent retinoic acid oxidation, rat liver microsomes (to identify B5)
test-conditions: compound 100 μM
# % Inhibition Retinoic Acid (100 μM) annotations
Provide only the numeric value, understood in %.

Here is how some compounds turned out for % Inhibition Retinoic Acid (100 μM).
compound | value-measured
CC(=O)N1CCN(c2ccc(OCC3COC(Cn4ccnc4)(c4ccc(Cl)cc4Cl)O3)cc2)CC1 (centres unmarked) [Ketoconazole, reference compound] | 84
CCCCCCCC/C=C\CCCCCCCC1=NCCN1CCO [Oleyl Hydroxyethylimidazoline] | 80
CC(C)(C(=O)c1cccnc1)c1cccnc1 [2-Methyl-1,2-di-3-Pyridyl-1-Propane] | 47
Clc1ccc(COC(Cn2ccnc2)c2ccc(Cl)cc2Cl)cc1 (centres unmarked) [Econazole] | 100
c1ccc(-c2ccc(C(c3ccccc3)n3ccnc3)cc2)cc1 (centres unmarked) [Bifonazole] | 100

Given item Clc1ccc(COC(Cn2ccnc2)c2ccc(Cl)cc2Cl)c(Cl)c1 (centres unmarked) [Miconazole, reference compound] , the value recorded as its % Inhibition Retinoic Acid (100 μM) is 86

Given item O=c1c(O)c(-c2ccc(O)c(O)c2)oc2cc(O)cc(O)c12 [Quercetin] , the value recorded as its % Inhibition Retinoic Acid (100 μM) is 74

Given item CC(C)(C)C(=O)C(Oc1ccc(Cl)cc1)n1ccnc1 (centres unmarked) [Climbazole, reference compound] , the value recorded as its % Inhibition Retinoic Acid (100 μM) is 92

###

assay-target: LRAT (Bos taurus, UniProt Q9BGL2)
Construct: followed by approximately 15 μg of RPE microsomal protein; tissue W. L. Lawson Co., Lincoln, Nebr., USA (eyecups); host or cells: bovine retinal pigment epithelium microsomes
Sequence (Q9BGL2 whole entry): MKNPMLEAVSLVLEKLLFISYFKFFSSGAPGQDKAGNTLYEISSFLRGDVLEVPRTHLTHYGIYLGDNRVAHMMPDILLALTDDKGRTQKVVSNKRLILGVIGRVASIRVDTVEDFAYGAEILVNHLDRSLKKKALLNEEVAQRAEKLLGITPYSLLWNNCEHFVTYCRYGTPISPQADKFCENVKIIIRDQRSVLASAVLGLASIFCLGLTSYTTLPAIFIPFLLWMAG
assay-notes: Assay for LRAT activity, bovine RPE microsomes (to identify B1)
Type: biochemical
test-conditions: compound 100 jm
measurement-name: % Inhibition LRAT (100 jm)

Here is how some compounds turned out for % Inhibition LRAT (100 jm).
compound | % Inhibition LRAT (100 jm)
CCCC(O)CCC1C(C)CCCC1(C)C (centres unmarked) | 33%
C/C=C\C(=O)C1C(C)=CCCC1(C)C (centres unmarked) | 98% +/− 1
CC(=O)CCC1C(C)=CCCC1(C)C (stereo not drawn) [Dihydro Alpha-Ionone] | 18%
CC=CC(=O)C1CCC(C)(C)C=C1C (centres unmarked) | 92%

% Inhibition LRAT (100 jm) for LRAT (Bos taurus, UniProt Q9BGL2) with input CC(=O)/C=C/C=C(\C)CCC=C(C)C equals 37%

% Inhibition LRAT (100 jm) for LRAT (Bos taurus, UniProt Q9BGL2) with input CCCCCCCC(=O)OCC(COP(=O)(O)OCCN)OC(=O)CCCCCCC (centres unmarked) equals 17% +/− 17

% Inhibition LRAT (100 jm) for LRAT (Bos taurus, UniProt Q9BGL2) with input C/C=C/C(=O)C1=C(C)CCCC1(C)C equals 92%

% Inhibition LRAT (100 jm) for LRAT (Bos taurus, UniProt Q9BGL2) with input CCCCC/C=C\C/C=C\CCCCCCCC(=O)N(CCO)CCO [Linoleoyl Diethanolamide] equals 51% +/− 15

###

# % Inhibition LRAT (10 jm) annotations
assay-target: LRAT (Bos taurus)
Construct: followed by approximately 15 μg of RPE microsomal protein; tissue W. L. Lawson Co., Lincoln, Nebr., USA (eyecups); host or cells: bovine retinal pigment epithelium microsomes
assay-notes: Assay for LRAT activity, bovine RPE microsomes (to identify B1)
Format: biochemical
test-conditions: compound 10 jm

% Inhibition LRAT (10 jm) for LRAT (Bos taurus) with input CCCCC/C=C\C/C=C\CCCCCCCC(=O)N(CCO)CCO [Linoleoyl Diethanolamide] equals 11% +/− 9

% Inhibition LRAT (10 jm) for LRAT (Bos taurus) with input CCCCCCCC(=O)OCC(COP(=O)(O)OCCN)OC(=O)CCCCCCC (stereo not shown) equals 0%

% Inhibition LRAT (10 jm) for LRAT (Bos taurus) with input C/C=C\C(=O)C1C(C)=CCCC1(C)C (stereo not shown) equals 87% +/− 6

% Inhibition LRAT (10 jm) for LRAT (Bos taurus) with input C/C=C/C(=O)C1=C(C)CCCC1(C)C equals 52%

###

System: transglutaminase (TGase I)
assay-notes: Transglutaminase (Tgase) ELISA assay in cultured keratinocytes with retinol and boosters
Format: cell-based, human
test-conditions: IC20 (80% of control), compound tested individually in the presence of 10^-7 M retinol
# IC20 annotations

Here is how some molecules turned out for IC20.
molecule | assay-target | value-measured
C/C=C\C(=O)C1C(C)=CCCC1(C)C (stereo not shown) | transglutaminase (TGase I) | 169 µM
CC(C)(C)C(=O)C(Oc1ccc(Cl)cc1)n1ccnc1 (stereo not shown) [Climbazole, reference compound] | transglutaminase (TGase I) | 0.245 µM
CCCCCCC(O)CCCCCCCCCCC(=O)O (stereo not shown) [12-Hydroxystearic Acid] | transglutaminase (TGase I) | 14.5 µM

We next turn to a different molecule, shown below.
Given item CCCCCCCCCCC(O)C(=O)NCCO (stereo not shown) [Hydroxyethyl-2-Hydroxy-C12 Amide, N-Hydroxyethyl-2-hydroxydodecyl amide] , the value recorded as its IC20 is 24 µM

###

System: transglutaminase (TGase I)
assay-notes: Transglutaminase (Tgase) ELISA assay in cultured keratinocytes with retinol and boosters
Assay type: cell-based, human
test-conditions: IC20 (80% of control), compound tested individually in the presence of 10^-7 M retinol
measurement-name: IC20 (µM)
Provide only the numeric value, understood in µM.

Here is how some compounds turned out for IC20.
compound | unit-text | value-measured
O=c1c2cccc3cccc(c32)c2nc3ccccc3n12 | µM | 0.469
O=C(O)CCCCCCCCCCCCCCC(=O)O | µM | 84

Given item Oc1ccc2ccccc2n1 [Hydroxyquinoline (Carbostyril), 2-Hydroxyquinoline(Carbostyril)] , the value recorded as its IC20 is 170

###

# IC50 annotations
assay-target: transglutaminase (TGase I)
assay-notes: Transglutaminase (Tgase) ELISA assay in cultured keratinocytes with retinol and boosters
Assay type: cell-based, human
test-conditions: B1 table; booster concentration which with 10^−7 M retinol inhibits TGase by 50%; same values in the 19th table (Molar); read-out: Overall TG (IC 50)
Provide only the numeric value, understood in µM.

molecule | assay-target | measurement-name | value-measured
CCCCC/C=C\C/C=C\CCCCCCCC(=O)NCCO [Linoleoyl Monoethanolamide] | transglutaminase (TGase I) | IC50 | 16.1
C/C=C\C(=O)C1C(C)=CCCC1(C)C (stereo not drawn) | transglutaminase (TGase I) | IC50 | 335

IC50 for transglutaminase (TGase I) with input CCCCCCCCCCC(O)C(=O)NCCO (stereo not drawn) [Hydroxyethyl-2-Hydroxy-C12 Amide, N-Hydroxyethyl-2-hydroxydodecyl amide] equals 32.9

###

System: Retinal Reductase
assay-notes: Assay for retinal reductase activity, rat liver microsomes (to identify B3)
Assay type: biochemical
test-conditions: test compound final 100 μM
# % Inhibition Retinal Reductase annotations

% Inhibition Retinal Reductase for Retinal Reductase with input CCCCC/C=C\C/C=C\C/C=C\C/C=C\CCCC(=O)O equals 49%

% Inhibition Retinal Reductase for Retinal Reductase with input CCCCC/C=C\C/C=C\CCCCCCCC(=O)O equals 62% +/− 2

% Inhibition Retinal Reductase for Retinal Reductase with input CCCCCCCCCCCCCC(=O)O equals 26%

% Inhibition Retinal Reductase for Retinal Reductase with input COc1cc(C=O)ccc1O equals 6%

% Inhibition Retinal Reductase for Retinal Reductase with input CC1(C)[C@@H](OC(=O)CCC(=O)O)CC[C@]2(C)[C@H]3C(=O)C=C4[C@@H]5C[C@@](C)(C(=O)O)CC[C@]5(C)CC[C@@]4(C)[C@]3(C)CC[C@@H]12 [Carbenoxolone, reference compound] equals 26% +/− 2

% Inhibition Retinal Reductase for Retinal Reductase with input CC1(C)[C@@H](O)CC[C@]2(C)[C@H]3C(=O)C=C4[C@@H]5C[C@@](C)(C(=O)O)CC[C@]5(C)CC[C@@]4(C)[C@]3(C)CC[C@@H]12 equals 38% +/− 1

% Inhibition Retinal Reductase for Retinal Reductase with input CCCCCCCCCCCCCCCCCCCC(=O)O equals 20%
